# Target desc: HCV NS3/4A protease GT3 (Hepatitis C virus genotype 3a, UniProt Q81495)
# Sequence (Q81495 1033-1214): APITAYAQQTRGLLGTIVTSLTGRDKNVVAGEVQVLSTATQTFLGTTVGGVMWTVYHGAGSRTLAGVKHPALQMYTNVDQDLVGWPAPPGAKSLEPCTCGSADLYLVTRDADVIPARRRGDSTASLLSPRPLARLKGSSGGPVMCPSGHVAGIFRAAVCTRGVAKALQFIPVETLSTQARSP
# Sequence (Q81495 1664-1717): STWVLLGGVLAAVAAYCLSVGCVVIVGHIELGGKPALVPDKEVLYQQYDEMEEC
# Method notes: biochemical
Please respond with reported Ki for every item in the list.
Write down the numeric answer in nM and omit the unit.

Task: Endpoint output: Ki of COc1ccc2nc(C(F)(F)F)c(O[C@@H]3C[C@H]4C(=O)N[C@]5(C(=O)NS(=O)(=O)C6(C)CC6)C[C@H]5/C=C\CCCCC[C@H](NC(=O)OC5CC5)C(=O)N4C3)nc2c1 [NR02-46] . Value?
Result: 522

Task: Could you tell me which Ki is on file for COc1ccc2nc(C)c(O[C@@H]3C[C@H]4C(=O)N[C@]5(C(=O)NS(=O)(=O)C6(C)CC6)C[C@H]5/C=C\CCCCC[C@H](NC(=O)O[C@@H]5CCC[C@H]5F)C(=O)N4C3)nc2c1 [NR02-08] ?
Result: 216

Task: What does the record list as Ki for COc1ccc2nc(C)c(O[C@@H]3C[C@H]4C(=O)N[C@]5(C(=O)NS(=O)(=O)C6(C)CC6)C[C@H]5/C=C\CCCCC[C@H](NC(=O)OC5CCCCC5)C(=O)N4C3)nc2c1 [NR03-67] ?
Result: 145

----------
For each entry below, report its pKi value.
# Target desc: wild-type HCV NS3/4A protease (GT1a) (Hepatitis C virus genotype 1a, UniProt P27958, C1185S)
# Construct: His-tag (cleaved yes); made in house; host or cells: Escherichia coli BL21(DE3), PET28a vector
# Sequence (P27958 1027-1208 C1185S): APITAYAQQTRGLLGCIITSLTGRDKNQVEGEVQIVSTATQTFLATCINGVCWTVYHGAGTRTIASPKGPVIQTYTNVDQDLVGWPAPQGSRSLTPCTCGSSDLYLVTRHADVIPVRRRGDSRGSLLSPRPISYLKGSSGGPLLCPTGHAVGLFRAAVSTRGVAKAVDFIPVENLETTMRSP
# Method notes: biochemical
# Type: biochemical
Would you please state pKi, meaning minus log10 of the concentration in mol/L, as a bare number?

Task: Dear colleague, I am looking for the recorded pKi of the following molecule: COc1ccc2nc(C(F)(F)F)c(O[C@@H]3C[C@H]4C(=O)N[C@]5(C(=O)NS(=O)(=O)C6(C)CC6)C[C@H]5/C=C\CCCCC[C@H](NC(=O)O[C@H](C)C(C)C)C(=O)N4C3)nc2c1 [NR01-121]
Result: 8.53

Task: What does the data say about its pKi? Entry: COc1ccc2nc(C)c(O[C@@H]3C[C@H]4C(=O)N[C@]5(C(=O)NS(=O)(=O)C6(C)CC6)C[C@H]5/C=C\CCCCC[C@H](NC(=O)O[C@@H](C)C5CC5)C(=O)N4C3)nc2c1 [NR02-25]
Result: 8.74

Task: If you can, please state the reported pKi value of COc1ccc2nc(C)c(O[C@@H]3C[C@H]4C(=O)N[C@]5(C(=O)NS(=O)(=O)C6(C)CC6)C[C@H]5/C=C\CCCCC[C@H](NC(=O)O[C@@H]5C[C@@H]6C[C@@H]6C5)C(=O)N4C3)nc2c1 [NR03-77] .
Result: 9.27

Task: Recorded pKi of COc1ccc2nc(C(F)(F)F)c(O[C@@H]3C[C@H]4C(=O)N[C@]5(C(=O)NS(=O)(=O)C6(C)CC6)C[C@H]5/C=C\CCCCC[C@H](NC(=O)OC5(C(F)(F)F)CCCC5)C(=O)N4C3)nc2c1 [NR04-01] , please.
Result: 8.25

Task: Param item = CC[C@H](C)[C@H](NC(C)=O)C(=O)N[C@H]1CCCCC/C=C\[C@@H]2C[C@@]2(C(=O)NS(=O)(=O)C2(C)CC2)NC(=O)[C@@H]2C[C@@H](Oc3nc4cc(OC)ccc4nc3C)CN2C1=O [Inhibitor P4P5-4] ; retrieve measured pKi.
Result: 8.15

----------
# Target desc: HCV NS3/4A protease D168A variant (Hepatitis C virus genotype 1a, UniProt P27958, C1185S/D1194A)
# Construct: His-tag (cleaved yes); made in house; host or cells: Escherichia coli BL21(DE3), PET28a vector
# Sequence (P27958 1027-1208 C1185S/D1194A): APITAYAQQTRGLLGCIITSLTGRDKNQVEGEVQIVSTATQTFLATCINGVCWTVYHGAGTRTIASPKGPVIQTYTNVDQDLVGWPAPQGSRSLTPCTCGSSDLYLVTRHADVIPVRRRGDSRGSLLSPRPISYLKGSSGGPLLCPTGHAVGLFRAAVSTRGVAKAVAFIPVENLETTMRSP
# Method notes: biochemical
# Format: biochemical
Test readout: Ki
Write the numeric value and follow it with the unit.

Task: Query: Ki; subject: COc1ccc2nc(C(F)(F)F)c(O[C@@H]3C[C@H]4C(=O)N[C@]5(C(=O)NS(=O)(=O)C6(C)CC6)C[C@H]5/C=C\CCCCC[C@H](NC(=O)OC(C)(C)C)C(=O)N4C3)nc2c1
Result: 118 nM

Task: Endpoint output: Ki of COc1ccc2nc(C(F)(F)F)c(O[C@@H]3C[C@H]4C(=O)N[C@]5(C(=O)NS(=O)(=O)C6(C)CC6)C[C@H]5/C=C\CCCCC[C@H](NC(=O)O[C@H](C)C(C)C)C(=O)N4C3)nc2c1 . Value?
Result: 10.4 nM

Task: Param item = COc1ccc2nc(C)c(O[C@@H]3C[C@H]4C(=O)N[C@]5(C(=O)NS(=O)(=O)C6(C)CC6)C[C@H]5/C=C\CCCCC[C@H](NC(=O)O[C@@H](C)C(C)C)C(=O)N4C3)nc2c1 ; retrieve measured Ki.
Result: 21.7 nM

Task: So what's the measured Ki for this one? COc1ccc2nc(C)c(O[C@@H]3C[C@H]4C(=O)N[C@]5(C(=O)NS(=O)(=O)C6(C)CC6)C[C@H]5/C=C\CCCCC[C@H](NC(=O)O[C@H](C)C5CC5)C(=O)N4C3)nc2c1
Result: 23.5 nM

----------
# Target desc: wild-type HCV NS3/4A protease (GT1a) (Hepatitis C virus genotype 1a, UniProt P27958, C1185S)
# Construct: His-tag (cleaved yes); made in house; host or cells: Escherichia coli BL21(DE3), PET28a vector
# Method notes: biochemical
# Type: biochemical
Classification by Ki | ranges: bin 1: < 2 nM; bin 2: ≥ 2 nM and < 4 nM; bin 3: ≥ 4 nM

Task: Would you mind sorting COC(=O)NC1(C(=O)N[C@H]2CCCCC/C=C\[C@@H]3C[C@@]3(C(=O)NS(=O)(=O)C3(C)CC3)NC(=O)[C@@H]3C[C@@H](Oc4nc5cc(OC)ccc5nc4C)CN3C2=O)CCCC1 into the appropriate category?
Result: bin 3

Task: Form: Item = COc1ccc2nc(C)c(O[C@@H]3C[C@H]4C(=O)N[C@]5(C(=O)NS(=O)(=O)C6(C)CC6)C[C@H]5/C=C\CCCCC[C@H](NC(=O)[C@@H](NC(C)=O)C5CCCC5)C(=O)N4C3)nc2c1 ; Class = ?
Result: bin 2

Task: Please let me know in which category the item COC(=O)N[C@H](C(=O)N[C@H]1CCCCC/C=C\[C@@H]2C[C@@]2(C(=O)NS(=O)(=O)C2(C)CC2)NC(=O)[C@@H]2C[C@@H](Oc3nc4cc(OC)ccc4nc3C)CN2C1=O)C(C)(C)C belongs.
Result: bin 3

Task: Classify this compound: CCC(CC)OC(=O)N[C@H]1CCCCC/C=C\[C@@H]2C[C@@]2(C(=O)NS(=O)(=O)C2(C)CC2)NC(=O)[C@@H]2C[C@@H](Oc3nc4cc(OC)ccc4nc3C(F)(F)F)CN2C1=O
Result: bin 3

Task: Classify this compound: COc1ccc2nc(C)c(O[C@@H]3C[C@H]4C(=O)N[C@]5(C(=O)NS(=O)(=O)C6(C)CC6)C[C@H]5/C=C\CCCCC[C@H](NC(=O)OC5CCCCC5)C(=O)N4C3)nc2c1
Result: bin 1

Task: Note: place this compound into its band. Item: COC(=O)N[C@H](C(=O)N[C@H]1CCCCC/C=C\[C@@H]2C[C@@]2(C(=O)NS(=O)(=O)C2(C)CC2)NC(=O)[C@@H]2C[C@@H](Oc3nc4cc(OC)ccc4nc3C)CN2C1=O)C1CCCCC1
Result: bin 1

Task: Please classify: COc1ccc2nc(C)c(O[C@@H]3C[C@H]4C(=O)N[C@]5(C(=O)NS(=O)(=O)C6(C)CC6)C[C@H]5/C=C\CCCCC[C@H](NC(=O)OC(C)(C)C)C(=O)N4C3)nc2c1
Result: bin 2

Task: State the class of the compound shown: COc1ccc2nc(C)c(O[C@@H]3C[C@H]4C(=O)N[C@]5(C(=O)NS(=O)(=O)C6(C)CC6)C[C@H]5/C=C\CCCCC[C@H](NC(=O)O[C@@H](C)C(F)(F)F)C(=O)N4C3)nc2c1
Result: bin 1

Task: Band for the recorded Ki of COC(=O)N[C@H](C(=O)N[C@H]1CCCCC/C=C\[C@@H]2C[C@@]2(C(=O)NS(=O)(=O)C2(C)CC2)NC(=O)[C@@H]2C[C@@H](Oc3nc4cc(OC)ccc4nc3C)CN2C1=O)C1CCCC1 ?
Result: bin 2

Task: Could you place COc1ccc2nc(C)c(O[C@@H]3C[C@H]4C(=O)N[C@]5(C(=O)NS(=O)(=O)C6(C)CC6)C[C@H]5/C=C\CCCCC[C@H](NC(=O)O[C@H](C)C(C)C)C(=O)N4C3)nc2c1 in its proper category? Many thanks.
Result: bin 1
